Assay: Oral bioavailability in dog at 5 mg/kg
Type: ADME, organism-based, Canis lupus familiaris
Conditions: in vivo
ENDPOINT: bioavailability (%)
Note: unit % is implicit; provide only the numeric part.

Query block: Suppose we examine the compound `c1cn(-c2cc(NC3=NC[C@@]4(CN5CCC4CC5)O3)ncn2)cn1` ; what bioavailability value has been reported?
Result block: 100

* * *

Experiment: AUC in dog at 1 mg/kg, iv administered as 5 mins infusion
Assay type: ADME, organism-based, Canis lupus familiaris
Conditions: in vivo
ENDPOINT: AUC at 5 min (µM·h)
Value expressed in µM·h; do not type the unit.

Query block: For the compound shown here, `c1cn(-c2cc(NC3=NC[C@@]4(CN5CCC4CC5)O3)ncn2)cn1` , give the reported AUC at 5 min.
Result block: 3.4

* * *

Experiment: Fraction unbound in rat plasma at 10 uM after 4 hrs by equilibrium dialysis method
Assay type: ADME, cell-free
ENDPOINT: fraction unbound at 4 h, 10 µM
Form rule: numeric answer, no unit written next to it.

c1ccc2cc(NC3=NC[C@@]4(CN5CCC4CC5)O3)ncc2c1; 0.27

Next compound, please.
Query block: Item `c1cn(-c2cc(NC3=NC[C@@]4(CN5CCC4CC5)O3)ncn2)cn1` has what recorded fraction unbound at 4 h, 10 µM?
Result block: 0.87

* * *

Molecular target: Nicotinic acetylcholine receptor alpha-1/beta-1/delta/epsilon (Rattus norvegicus, UniProt P09660+P25108+P25109+P25110)
Sequence (P25109 whole entry): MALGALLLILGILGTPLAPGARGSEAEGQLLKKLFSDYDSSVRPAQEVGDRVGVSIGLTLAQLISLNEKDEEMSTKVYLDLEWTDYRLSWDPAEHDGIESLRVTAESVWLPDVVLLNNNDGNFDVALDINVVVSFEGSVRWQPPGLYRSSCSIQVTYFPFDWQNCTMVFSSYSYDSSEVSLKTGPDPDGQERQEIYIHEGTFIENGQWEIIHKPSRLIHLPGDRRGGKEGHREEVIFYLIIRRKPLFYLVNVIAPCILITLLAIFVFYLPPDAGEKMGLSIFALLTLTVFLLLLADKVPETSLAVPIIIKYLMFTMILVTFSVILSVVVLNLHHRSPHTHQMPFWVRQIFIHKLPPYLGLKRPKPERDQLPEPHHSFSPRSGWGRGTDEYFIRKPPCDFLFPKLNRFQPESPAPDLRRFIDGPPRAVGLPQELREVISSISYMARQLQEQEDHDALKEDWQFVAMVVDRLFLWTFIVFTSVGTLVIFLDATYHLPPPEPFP
Sequence (P25108 whole entry): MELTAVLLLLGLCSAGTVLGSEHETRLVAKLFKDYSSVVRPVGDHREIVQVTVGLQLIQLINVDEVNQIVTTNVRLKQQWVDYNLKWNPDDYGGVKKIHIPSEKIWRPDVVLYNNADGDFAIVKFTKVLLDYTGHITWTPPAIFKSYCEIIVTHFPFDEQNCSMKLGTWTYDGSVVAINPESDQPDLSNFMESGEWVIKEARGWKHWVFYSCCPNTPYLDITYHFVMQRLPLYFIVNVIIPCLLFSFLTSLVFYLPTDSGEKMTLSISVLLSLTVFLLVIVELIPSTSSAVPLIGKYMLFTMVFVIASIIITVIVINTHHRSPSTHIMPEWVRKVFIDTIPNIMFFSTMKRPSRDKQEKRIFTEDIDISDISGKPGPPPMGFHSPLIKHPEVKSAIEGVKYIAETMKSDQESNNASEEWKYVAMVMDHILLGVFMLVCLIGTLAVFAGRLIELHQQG
Sequence (P25110 whole entry): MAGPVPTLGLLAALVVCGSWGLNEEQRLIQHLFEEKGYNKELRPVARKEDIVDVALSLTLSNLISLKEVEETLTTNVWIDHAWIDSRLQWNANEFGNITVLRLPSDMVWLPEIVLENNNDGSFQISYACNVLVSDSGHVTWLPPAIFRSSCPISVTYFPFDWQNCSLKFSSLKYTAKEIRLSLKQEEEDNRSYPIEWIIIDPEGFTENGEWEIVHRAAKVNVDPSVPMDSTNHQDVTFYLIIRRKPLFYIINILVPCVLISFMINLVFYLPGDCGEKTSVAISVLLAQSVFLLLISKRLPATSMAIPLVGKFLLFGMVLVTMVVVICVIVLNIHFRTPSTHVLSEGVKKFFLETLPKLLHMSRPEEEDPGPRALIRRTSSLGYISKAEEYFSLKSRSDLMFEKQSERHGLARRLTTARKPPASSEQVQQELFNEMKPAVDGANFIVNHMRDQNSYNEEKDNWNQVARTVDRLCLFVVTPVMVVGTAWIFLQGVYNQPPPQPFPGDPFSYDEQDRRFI
Sequence (P09660 whole entry): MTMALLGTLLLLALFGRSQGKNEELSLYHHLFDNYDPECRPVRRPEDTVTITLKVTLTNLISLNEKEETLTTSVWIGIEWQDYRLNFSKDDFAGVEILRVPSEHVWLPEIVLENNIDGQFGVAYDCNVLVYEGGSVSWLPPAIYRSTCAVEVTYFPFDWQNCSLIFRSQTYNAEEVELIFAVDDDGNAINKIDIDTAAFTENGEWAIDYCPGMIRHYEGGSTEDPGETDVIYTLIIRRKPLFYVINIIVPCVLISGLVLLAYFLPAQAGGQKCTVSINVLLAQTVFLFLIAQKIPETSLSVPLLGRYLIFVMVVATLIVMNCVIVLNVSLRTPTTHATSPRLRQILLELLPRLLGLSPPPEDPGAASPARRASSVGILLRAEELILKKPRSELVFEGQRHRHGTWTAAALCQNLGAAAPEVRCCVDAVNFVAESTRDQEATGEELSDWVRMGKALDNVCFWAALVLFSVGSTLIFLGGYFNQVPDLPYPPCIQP
Experiment: Agonist activity at rat alpha1beta1delta1epsilon nAChR expressed in HEK293 cells assessed as increase in Ca2+ flux by Fluo-4 AM dye based FLIPR assay
pEC50: −log10 of the molar value.
ENDPOINT: pEC50

Query block: Quick one: pEC50 for `c1cn(-c2cc(NC3=NC[C@@]4(CN5CCC4CC5)O3)ncn2)cn1` ?
Result block: < 4.00

* * *

Test: AUC in dog at 5 mg/kg, po
Type: ADME, organism-based, Canis lupus familiaris
Conditions: in vivo
ENDPOINT: AUC (µM·h)
Numeric answer only, unit µM·h assumed.

Query block: What value of AUC has been recorded for this entry: `c1cn(-c2cc(NC3=NC[C@@]4(CN5CCC4CC5)O3)ncn2)cn1`
Result block: 19

* * *

Target: CYP2C8 (Homo sapiens)
Sequence (P10632 whole entry): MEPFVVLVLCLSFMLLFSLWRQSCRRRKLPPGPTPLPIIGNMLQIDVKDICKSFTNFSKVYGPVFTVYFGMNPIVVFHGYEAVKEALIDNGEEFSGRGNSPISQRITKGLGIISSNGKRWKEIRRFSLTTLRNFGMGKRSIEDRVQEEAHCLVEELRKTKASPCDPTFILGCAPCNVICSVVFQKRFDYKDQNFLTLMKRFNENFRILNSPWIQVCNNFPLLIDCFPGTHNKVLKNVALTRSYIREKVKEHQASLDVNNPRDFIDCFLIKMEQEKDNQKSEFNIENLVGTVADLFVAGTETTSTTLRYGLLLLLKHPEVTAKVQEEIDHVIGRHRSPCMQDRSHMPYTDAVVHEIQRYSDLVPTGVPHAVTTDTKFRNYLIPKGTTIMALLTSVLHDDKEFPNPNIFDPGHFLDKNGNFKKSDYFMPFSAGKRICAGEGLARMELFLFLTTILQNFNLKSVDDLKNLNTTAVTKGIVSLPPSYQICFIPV
Assay: Inhibition of recombinant human CYP2C8 using fluorogenic substrate preincubated for 30 mins and measured after 20 to 60 mins in presence of NADPH regenerating system by fluorescence assay
Format: ADME
Details: human, recombinant CYP2C8, probe fluorogenic substrate (not named)
ENDPOINT: IC50

Query block: What value of IC50 has been recorded for this entry: `c1ccc2cc(NC3=NC[C@@]4(CN5CCC4CC5)O3)ncc2c1`
Result block: > 40 µM

* * *

Target: CYP2D6 (Homo sapiens, UniProt P10635)
Sequence (P10635 whole entry): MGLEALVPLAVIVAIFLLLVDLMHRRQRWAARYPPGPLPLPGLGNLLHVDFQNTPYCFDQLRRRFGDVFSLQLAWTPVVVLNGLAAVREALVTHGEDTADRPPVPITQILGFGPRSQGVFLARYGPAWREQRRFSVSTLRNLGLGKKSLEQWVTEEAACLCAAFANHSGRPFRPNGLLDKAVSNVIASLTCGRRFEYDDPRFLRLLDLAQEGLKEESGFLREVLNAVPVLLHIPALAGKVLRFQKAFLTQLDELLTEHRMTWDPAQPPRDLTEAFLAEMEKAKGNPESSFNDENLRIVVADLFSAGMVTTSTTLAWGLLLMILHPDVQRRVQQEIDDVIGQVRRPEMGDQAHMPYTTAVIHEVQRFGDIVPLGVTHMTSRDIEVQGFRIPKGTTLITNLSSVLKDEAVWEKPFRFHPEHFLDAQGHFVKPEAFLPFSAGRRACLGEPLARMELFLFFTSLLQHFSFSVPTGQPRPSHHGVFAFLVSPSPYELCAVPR
Test: Inhibition of recombinant human CYP2D6 using fluorogenic substrate preincubated for 30 mins and measured after 20 to 60 mins in presence of NADPH regenerating system by fluorescence assay
Assay type: ADME
Details: human, recombinant CYP2D6, probe fluorogenic substrate (not named)
pIC50: −log10 of the molar value.
ENDPOINT: pIC50

Query block: Which pIC50 is reported for this compound? `c1ccc2cc(NC3=NC[C@@]4(CN5CCC4CC5)O3)ncc2c1`
Result block: < 4.40

* * *

Test: Oral bioavailability in mouse at 10 mg/kg
Format: ADME, organism-based
Conditions: in vivo
ENDPOINT: bioavailability (%)
Hi! Could you send only the number? It should be in %, unit omitted.

Query block: Need bioavailability, item `c1cn(-c2cc(NC3=NC[C@@]4(CN5CCC4CC5)O3)ncn2)cn1`
Result block: 45
